The measurements presented in this section are drawn from PubChem BioAssay (NCI).

tested on: OVCAR-4 ovarian; experiment: NCI-60 one-dose screen, 48 h; conditions: 10 µM unless noted
About 83,000 compounds went through this panel and 20% of them were active in at least one assay; those are over-represented in the sample as a whole. The source made the active and inactive calls. How the source made its calls: active means growth percent below 10; inactive means the rest.
Outcome codes: T = active, F = inactive

molecule="CN1C(=O)N(C)C2Nn3c(s/c(=C\\c4ccccc4)c3=O)=NC21 (centres undefined)" group_label=F
molecule=O=C(Cc1ccc(F)c(Cl)c1)Nc1cc(C2(C(F)(F)F)CC2)nn1Cc1ccccc1 group_label=F
molecule=Cc1[nH]c(C(=O)Nc2ccc(C(=O)NCCN)cc2OC(C)C)c(Cl)c1Cl group_label=T
molecule=O=c1c2cc(F)cc(Cl)c2sc2c(NCCCNCCO)nc3ccccc3c12 group_label=F
molecule=COc1cccc(-c2nc(-c3ccc(NC(=O)OC(C)C)cc3)[nH]c2-c2ccnc(Br)c2)c1 group_label=F
molecule=NC1CCN(c2nc(Nc3cccc(C(F)(F)F)c3)c3c(=O)[nH]ccc3n2)CC1 group_label=T
molecule=CCc1ccccc1-n1c(N)c(C#N)c(-c2ccc(Cl)cc2)c(C#N)c1=O group_label=F
molecule=CC(=O)c1ccc(Nc2nc(C(C)=O)c(C)s2)cc1 group_label=F
molecule=COc1cccc(/C=C2\C=C(c3ccccc3)N(Cc3ccccc3)C2=O)c1 group_label=F
molecule=N#Cc1c(Nc2cccc(Cl)c2)sc(C(=O)c2cc3cc(Cl)ccc3o2)c1N group_label=F
molecule=CCOC(=O)c1[nH]c(C)c(C(=O)OCc2ccccc2C#N)c1C group_label=F
molecule="CC1=C([Se]CC(OC(=O)[C@@H](CSSC(C)(C)C)NC(=O)OC(C)(C)C)C(=O)NC(C)(C)C)C(=O)c2ccccc2C1=O (some centres undefined)" group_label=T
molecule=COc1cc(C(=O)c2cc(C)c3[nH]c4ccc(C)cc4c3c2C)cc(OC)c1OC group_label=F
molecule=COc1ccc(C(=O)COC(=O)[C@H](C[Se][Se]C[C@H](NC(=O)c2ccc(Br)cc2F)C(=O)OCC(=O)c2ccc(OC)cc2)NC(=O)c2ccc(Br)cc2F)cc1 group_label=T

###

system: SF-539 CNS; assay: NCI-60 one-dose screen, 48 h; conditions: 10 µM unless noted
About 83,000 compounds went through this panel and 20% of them were active in at least one assay; those are over-represented in the sample as a whole. Active and inactive are the calls of the source. Rule for the calls: active = growth percent below 10; inactive = the rest.
Outcome codes: label 1 (active), label 0 (inactive)

compound=COc1ccc(-c2c(C(=O)NS(C)(=O)=O)n(Cc3cccc(C(F)(F)F)c3)c3ccccc23)cc1 group_label="label 0"
compound=O=C(CCN1C(=O)/C(=C/c2ccc(O)cc2)SC1=S)Nc1ccccc1 group_label="label 0"
compound="N#CC1=C(N)Oc2c(sc3c(Br)cccc23)C1c1ccc(Br)cc1 (stereo not given)" group_label="label 1"
compound=COc1cc(C(=O)/C=C/c2sc(Cl)nc2Cl)cc(OC)c1OC group_label="label 1"
compound=O=c1[nH][n+](-c2ccc(Br)cc2)no1 group_label="label 1"
compound=C=C1C(=O)O[C@H]2[C@H]1CC/C(COC(=O)CCSSCCC(=O)OC/C1=C/CC[C@@]3(C)O[C@H]3[C@H]3OC(=O)C(=C)[C@@H]3CC1)=C\CC[C@@]1(C)O[C@@H]21 group_label="label 1"
compound=Cc1cc(=O)oc2cc(OC(=O)CN3CCN(C)CC3)ccc12 group_label="label 0"
compound="CCn1cnc2c1c(=O)[nH]c(=O)n2CC1CCC(CNS(=O)(=O)c2ccc(OC3CCOCC3)c(F)c2)CC1 (stereo not given)" group_label="label 0"
compound=N#Cc1cccc(NC(=O)c2cc(-c3ccc(F)cc3F)ccc2O)c1 group_label="label 0"
compound=CC(=O)O.CN1[CH-]N(Cc2ccc(C#N)cc2)c2ccccc21.[Ag+] group_label="label 0"
compound=COc1ccc(/C=C/c2c(C(=O)/C=C/c3ccc(Cl)cc3)c(C)nc3ccccc23)cc1 group_label="label 0"
compound=CC(C)C(=O)Nc1ccc(-c2nc(-c3cccc(OCCN4CCOCC4)c3)c(-c3ccnc(Br)c3)[nH]2)cc1 group_label="label 0"
compound=CCN(CC)CCCNc1nc2ccccc2c2c(=O)c3cc(Cl)ccc3sc12 group_label="label 0"
compound=CCOC(=O)c1c2c(n(-c3ccc(C#N)cc3)c1-c1ccccc1)C=CCC2 group_label="label 0"
compound=O=c1ccc(N=Nc2ccccc2)ccc1Cl group_label="label 0"
